assay: qHTS for Inhibitors of TGF-b: Cytotox Counterscreen; details: HepG2 CAGA-GFP viability, ATP luminescence, 18 h; series mostly up to 46.1 µM
Out of some 410,000 compounds screened, about 3,100 (0.76%) were called active. Calls come from the whole dose curve; as a rule, active = well fitted cell-killing curve with a large enough effect; inactive = no such curve, though single readings can be large or run the other way. Only a selection was taken, and actives are over-represented in it overall.
Use one of these outcomes when replying: yes (active), no (inactive)

Q. Entry "Cc1ccc(-c2cnc(C3CC3)o2)cc1S(=O)(=O)Nc1cccc(C)c1C" : call = ?
A. no

Q. Which outcome was entered for the molecule "O=C(CSc1ccccc1)Nc1cc(Cl)ccc1Oc1ccccc1" in this test?
A. no

Q. Dear colleague, could you share the recorded outcome for "Cc1ccc(C)c2sc(NC(=O)c3ccc(S(=O)(=O)N4CCCC4)cc3)nc12" when you have a moment?
A. no

***
Q. Record lookup: outcome of this test for "O=C(Nc1cccc2cccnc12)C(F)(F)F" ?
A. no

Q. Per the records of this test, what outcome belongs to "Cc1ccc(C(=O)Nc2ccc(C(=O)O)cc2)cc1S(=O)(=O)Nc1ccccc1" ?
A. no

Q. // param item: "CCOc1cccc2cc(-c3cn4c(n3)sc3cc(C)ccc34)c(=O)oc12" ; yields the recorded call
A. no

Q. Recorded test outcome, item CC1=C(C(=O)Nc2ccccc2)C(c2ccc(C)cc2)n2nc(SCc3ccccc3C)nc2N1 (configuration not stated)
A. no

Q. Outcome logged for "CCC(=O)N1CCc2cc(Br)cc(S(=O)(=O)CCC(=O)NCCc3ccc(OC)c(OC)c3)c21" in this assay:
A. no

Q. Which outcome did this test record for the molecule O=C(NC(c1ccc(-c2ccccc2)cc1)c1cnccn1)C1CCN(CCOc2ccc(Cl)cc2Cl)CC1 (configuration not stated) ?
A. no
